- Study Target: T1, HBVc18pMHC, biotinylated recombinant complex (HLA-A*0201: HBVc18) (human; Hepatitis B virus)
- T1 construct: also called HBVc18 peptide-MHC complex
- Assay Name: SPR (ProteOn)
Value Type: Kd (nM)

- Binder: "DARPin® protein comprising SEQ ID NO 229 (linked to a CD3-specific binding agent) (designed binder) GSDLGSKLLYAAISGQDDEVRILLAAGADVNAKDESGQTPLHYAAFVGHLEIVEVLLKAGADVNAKDQWGHTPLHVAATFGHLEIVEVLLKAGADVNAQDTWGTTPADLAATFGHEDIAVVLQKAA"
  Measurement Unit: "nM"
  Numeric Result: 1.03
- Binder: "DARPin® protein comprising SEQ ID NO 226 (linked to a CD3-specific binding agent) (designed binder) GSDLGKKLLSAAQSGQDDEVRILLGAGADVNAKDKWGHTPLHLAAVKGHLEIAEVLLKAGADVNAKDEWGSTPLHLAASQGHLEIVEVLLKAGADVNAKDKKGATPLHLAALVGHLEIVEVLLKAVADVNAQDKSGKTPADLAARAGHQDIAEVLQKAA"
  Measurement Unit: "nM"
  Numeric Result: 13.8
- Binder: "DARPin® protein comprising SEQ ID NO 221 (linked to a CD3-specific binding agent) (designed binder) GSDLGQKLLLAAAIGQDDEVRILLAAGADVNAKDESGHTPLHYAAHVGHLEIVEVLLKAGDVNAKDHRGFTPLHVAAQIGHLEIVEVLLKAGADVNAQDNWGITPADLAAWWGHEDIAEVLQKAA"
  Measurement Unit: "nM"
  Numeric Result: 0.369
- Binder: "DARPin® protein comprising SEQ ID NO 222 (linked to a CD3-specific binding agent) (designed binder) GSDLGYKLLTAAIVGQDDEVRILLAAGADVNAKDQSGLTPLHLAAAYGHLEIVEVLLKAGADVNAKDKHGRTPLHLAALEGHLEIVEVLLKAGADVNAQDQFGITPADLAAAVGHEDIAEVLQKAA"
  Measurement Unit: "nM"
  Numeric Result: 7.15
- Binder: "DARPin® protein comprising SEQ ID NO 224 (linked to a CD3-specific binding agent) (designed binder) GSDLGFKLLEAALEGQDDEVRILLAAGADVNAKDESGQTPLHYAAFVGHLEIVEVLLKAGADVNAKDQWGHTPLHVAATFGHLEIVEVLLKAGADVNAQDTWGTTPADLAATFGHEDIAEVLQKAA"
  Measurement Unit: "nM"
  Numeric Result: 0.736
- Binder: "DARPin® protein comprising SEQ ID NO 225 (linked to a CD3-specific binding agent) (designed binder) GSDLGIKLLFAANFGQDDEVRILLAAGADVNAKDQSGRTPLHLAALWGHLEIVEVLLKAGADVNAKDVFGLTPLHIAATFGHLEIVEVLLKAGVDVNAQDYTGHTPADLAALIGHEDIAEVLQKAA"
  Measurement Unit: "nM"
  Numeric Result: 9.23
- Binder: "DARPin® protein comprising SEQ ID NO 227 (linked to a CD3-specific binding agent) (designed binder) GSDLGQKLLTAAIVGQDDEVRILLAAGADVNAKDQSGLTPLHLAAAYGHLEIVEVLLKAGADVNAKDKHGRTPLHLAALEGHLEIVEVLLKAGADVNAQDQFGITPADLAAAVGHEDIAEVLQKAA"
  Measurement Unit: "nM"
  Numeric Result: 7.1
- Binder: "DARPin® protein comprising SEQ ID NO 230 (linked to a CD3-specific binding agent) (designed binder) GSDLGKKLLQAARAGQLDEVHELLKAGADVNAKDQHGKTPMHLAAQIGHLEIVEVLLKAGADVNAKDHIGWTPLHLAASVGHLEIVEVLLKAGADVNAKDQEGWTPLHVAAQLGHLEIVEVLLKAGADVNAQDKSGKTPADLAARAGHQDSAEVLQKAA"
  Measurement Unit: "nM"
  Numeric Result: 9.33
- Binder: "DARPin® protein comprising SEQ ID NO 228 (linked to a CD3-specific binding agent) (designed binder) GSDLGWKLLHAATTGQDDEVRILLAAGADVNAKDESGQTPLHYAAFVGHLEIVEVLLKAGADVNAKDQWGHTPLHVAATFGHLEIVEVLLKAGADVNAQDTWGTTPADLAATFGHEDIAEVLQKAA"
  Measurement Unit: "nM"
  Numeric Result: 4.72
- Binder: "DARPin® protein comprising SEQ ID NO 220 (linked to a CD3-specific binding agent) (designed binder) GSDLGHKLLFAASAGQDDEVRILLAAGADVNAKDESGQTPLHYAAFVGHLEIVEVLLKAGADVNAKDQWGHTPLHVAATFGHLEIVEVLLKAGADVNAQDTWGTTPADLAATFGHEDIAEVLQKAA"
  Measurement Unit: "nM"
  Numeric Result: 4.65

Where these numbers come from: patent US20230243070A1
